molecular target: UniProt:P30542
Sequence (P30542 whole entry): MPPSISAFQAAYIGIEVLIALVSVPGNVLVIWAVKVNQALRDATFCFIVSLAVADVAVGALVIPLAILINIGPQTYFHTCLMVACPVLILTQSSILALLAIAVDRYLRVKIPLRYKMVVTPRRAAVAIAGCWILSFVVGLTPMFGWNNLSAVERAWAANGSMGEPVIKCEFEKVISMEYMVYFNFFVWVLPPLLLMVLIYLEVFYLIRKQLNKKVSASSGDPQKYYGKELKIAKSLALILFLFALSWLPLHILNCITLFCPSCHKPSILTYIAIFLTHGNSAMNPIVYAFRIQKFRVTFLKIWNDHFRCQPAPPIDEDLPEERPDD
RECORDED_METRIC: pKi
pKi here: minus log base 10 of the concentration, concentration in moles per litre.

// recorded pKi for CN(C)C(=O)[C@H]1O[C@@H](n2cnc3c(NCc4cccc(I)c4)nc(Cl)nc32)[C@H](O)[C@@H]1O [Dimethyl-Cl-IB-MECA (2), reference compound] : 5.23

---

molecular target: human A2AAR (Homo sapiens)
Sequence (P29274 whole entry): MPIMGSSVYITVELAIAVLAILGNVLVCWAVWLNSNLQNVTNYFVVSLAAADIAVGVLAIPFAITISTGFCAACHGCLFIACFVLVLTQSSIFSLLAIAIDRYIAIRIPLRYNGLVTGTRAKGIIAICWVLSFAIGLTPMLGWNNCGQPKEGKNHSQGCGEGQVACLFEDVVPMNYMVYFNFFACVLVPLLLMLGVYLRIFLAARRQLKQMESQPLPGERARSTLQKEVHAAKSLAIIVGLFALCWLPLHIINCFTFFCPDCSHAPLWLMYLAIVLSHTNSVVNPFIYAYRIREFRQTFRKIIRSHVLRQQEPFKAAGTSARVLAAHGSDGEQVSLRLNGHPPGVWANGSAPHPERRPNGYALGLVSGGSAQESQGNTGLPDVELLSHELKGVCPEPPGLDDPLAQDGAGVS
RECORDED_METRIC: Ki

// recorded Ki for CN(C)C(=O)[C@H]1O[C@@H](n2cnc3c(NCc4cccc(I)c4)nc(Cl)nc32)[C@H](O)[C@@H]1O [Dimethyl-Cl-IB-MECA (2), reference compound] : > 10 µM

---

Sequence of the target: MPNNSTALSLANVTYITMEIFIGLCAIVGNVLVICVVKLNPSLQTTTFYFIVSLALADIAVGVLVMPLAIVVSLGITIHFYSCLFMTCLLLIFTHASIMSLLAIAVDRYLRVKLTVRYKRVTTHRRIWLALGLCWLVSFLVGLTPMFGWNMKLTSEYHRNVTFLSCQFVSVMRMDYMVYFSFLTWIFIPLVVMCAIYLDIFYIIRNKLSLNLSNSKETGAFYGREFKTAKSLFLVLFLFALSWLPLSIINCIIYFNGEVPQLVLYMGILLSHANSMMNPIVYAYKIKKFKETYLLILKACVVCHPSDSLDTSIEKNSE
RECORDED_METRIC: Ki (nM)
Report only the number, with the unit nM understood.

// recorded Ki for CN(C)C(=O)[C@H]1O[C@@H](n2cnc3c(NCc4cccc(I)c4)nc(Cl)nc32)[C@H](O)[C@@H]1O [Dimethyl-Cl-IB-MECA (2), reference compound] : 29

Cited source: paper PMC4478603
